Known pKi of a selection of molecules
# Test system: 5-hydroxytryptamine receptor 1A (Homo sapiens, UniProt P08908)
# Sequence (P08908 whole entry): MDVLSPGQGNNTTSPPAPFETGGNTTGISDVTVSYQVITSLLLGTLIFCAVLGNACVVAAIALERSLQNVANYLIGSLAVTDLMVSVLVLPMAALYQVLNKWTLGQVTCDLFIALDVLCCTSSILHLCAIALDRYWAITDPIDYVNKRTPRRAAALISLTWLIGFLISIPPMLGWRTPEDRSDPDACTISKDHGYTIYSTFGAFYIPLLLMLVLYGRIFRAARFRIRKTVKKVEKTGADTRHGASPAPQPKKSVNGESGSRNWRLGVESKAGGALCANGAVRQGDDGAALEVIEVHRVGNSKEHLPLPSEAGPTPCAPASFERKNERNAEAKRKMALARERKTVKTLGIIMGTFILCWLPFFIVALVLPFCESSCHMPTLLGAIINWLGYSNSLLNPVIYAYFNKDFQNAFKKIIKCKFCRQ
# Test protocol: Displacement of [3H]-8-OH-DPAT from human recombinant 5-HT1A receptor expressed in HEK293 cell membrane after 1 hr by Microbeta scintillation counting analysis
pKi: −log10 of the molar value.
Endpoint name: pKi

- CN1C(=O)N(CCCCCN2CCN(c3ccccc3)CC2)C(C)(c2ccccc2)C1=O.Cl (configuration not stated): 6.87
- COc1ccccc1N1CCN(CCCCCN2C(=O)N(C)C(=O)C2(C)c2ccccc2)CC1.Cl (configuration not stated): 7.63
- CC1(C)C(=O)N(Cc2ccccc2)C(=O)N1CCCCCN1CCN(c2ccccc2)CC1.Cl: 7.10
- CC1(C)C(=O)N(Cc2ccc(Cl)cc2Cl)C(=O)N1CCCCCN1CCN(c2ccc(Cl)cc2)CC1.Cl: 5.66
- CC1(C)C(=O)N(Cc2ccc(F)cc2)C(=O)N1CCCCCN1CCN(c2ccc(F)cc2F)CC1.Cl: 6.52
- COc1ccccc1N1CCN(CCCCN2C(=O)N(C)C(=O)C2(c2ccccc2)c2ccccc2)CC1: 9.10
- CC1(C)C(=O)N(Cc2ccc(F)cc2)C(=O)N1CCCCCN1CCN(c2ccc(F)cc2)CC1.Cl: 6.52
